Consider the following compounds; for each one, report its Z-score.
Target: Human IP6K1 (Homo sapiens, UniProt Q92551)
Construct: GST (N, cleaved yes); made in house; host or cells: C43 E. coli, pGEX-6P-2
Sequence (Q92551 whole entry): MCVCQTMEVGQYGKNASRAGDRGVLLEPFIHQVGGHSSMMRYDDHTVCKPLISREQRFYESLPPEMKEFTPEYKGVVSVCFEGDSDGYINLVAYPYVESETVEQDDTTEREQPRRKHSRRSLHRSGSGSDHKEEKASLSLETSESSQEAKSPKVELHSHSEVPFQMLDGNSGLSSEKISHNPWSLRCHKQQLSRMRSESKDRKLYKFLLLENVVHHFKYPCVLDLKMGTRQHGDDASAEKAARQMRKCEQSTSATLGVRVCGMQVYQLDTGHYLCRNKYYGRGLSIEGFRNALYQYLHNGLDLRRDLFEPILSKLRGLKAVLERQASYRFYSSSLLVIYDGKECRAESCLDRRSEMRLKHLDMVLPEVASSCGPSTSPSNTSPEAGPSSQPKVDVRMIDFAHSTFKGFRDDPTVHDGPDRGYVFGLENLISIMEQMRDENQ
Experiment: IP6K1 high-throughput screen of the Sigma LOPAC (ADP-Glo Max, single point);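 also: final compound concentration 10µM in 5% DMSO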
Type: biochemical
Settings: LOPAC single-point screen, Z-score against plate average and StDev
Structures can show the parent of a compound that is named as a salt.
Note: the reply should be a number with no unit written.

Sample CNCCCC12CCC(c3ccccc31)c1ccccc12 [Maprotiline hydrochloride] ; Z-score observed: 0.06595

Lab book: Z-score of C[Se]C[C@H](N)C(=O)O.Cl [Se-(methyl)selenocysteine hydrochloride] noted as 0.1906

Z-score measured on CNCC(O)c1ccc(O)cc1 (racemic) [(±)-Synephrine] = 0.1079

CCCNC(C)C(=O)Nc1ccccc1C (centres unmarked) [Prilocaine hydrochloride] has a reported Z-score of -0.08039

Looking up CC(C)C[C@H](NP(=O)([O-])O[C@H]1O[C@H](C)[C@@H](O)[C@H](O)[C@@H]1O)C(=O)N[C@@H](Cc1c[nH]c2ccccc12)C(=O)[O-].[Na+].[Na+] [Phosphoramidon disodium] , I see its Z-score listed as 0.0966

Kindly note the recorded Z-score for Oc1cc2c(cc1O)CN(C(=S)NCCc1ccc(Cl)cc1)CCC2 [Capsazepine] , which is -0.03494

O=[N+]([O-])c1cc(O)c(O)c([N+](=O)[O-])c1 [3,5-Dinitrocatechol] has a reported Z-score of 0.3105

Lab note: measured Z-score of NC1CCN(O)C1=O (racemic) [(±)-HA-966] was -0.02309

// Z-score value for C1COC(NC(C2CC2)C2CC2)=N1 [Rilmenidine hemifumarate] : -0.003459

Field Z-score (entry Cc1nc2sccn2c(=O)c1CCN1CCC(=C(c2ccc(F)cc2)c2ccc(F)cc2)CC1 [Ritanserin] ) reads 0.1599

Value of measured Z-score for the entry COc1ccc(CCN)cc1O.Cl : -0.001632

Form: compound = Cl.NNC(N)=O [Semicarbazide hydrochloride] ; Z-score = -0.03804

Record summary for CCC(NC(C)C)C(O)c1ccc(O)c(O)c1.CS(=O)(=O)O (centres unmarked) [Isotharine mesylate] : reported Z-score = -0.04932

Short answer for Nc1ccc(CCN2CCN(c3cccc(C(F)(F)F)c3)CC2)cc1 [PAPP] : Z-score was 0.02102
